So I've got a bunch of compounds here, and I need their % Inh @ 10 μM (rabbit) values.
# MEASURED_TARGET: PDEV (Oryctolagus cuniculus, UniProt G1SX67)
# MEASUREMENT_NOTES: Cyclic nucleotide phosphodiesterase (PDE) assay, inhibition of PDEV isolated from rabbit tissue
# Type: biochemical
# TEST_CONDITIONS: 10 μM test compound; rabbit PDEV
Number only, in %; omit the unit.

For this compound ( COC(=O)Cn1c2c(c3ccccc31)CCN(C(=O)c1ccc(-c3cccc([N+](=O)[O-])c3)o1)C2c1ccc2c(c1)OCO2 (stereo not shown) [Cmpd 24] ), measured % Inh @ 10 μM (rabbit) is 40

Looking up O=C(c1ccc(C(F)(F)F)o1)N1CCc2c([nH]c3ccccc23)C1c1ccc2c(c1)OCO2 (stereo not shown) [Cmpd 62] , I see its % Inh @ 10 μM (rabbit) listed as 86

Measured % Inh @ 10 μM (rabbit) of N#Cc1ccc(C2c3[nH]c4ccccc4c3CCN2C(=O)c2ccc(-c3cccc(C(F)(F)F)c3)o2)cc1 (stereo not shown) [Cmpd 81] : 18

Per the record, Cc1cc(C(=O)N2CCc3c([nH]c4ccccc34)C2c2ccc3c(c2)OCO3)nn1-c1ccccc1 (racemic) [Cmpd 106] has % Inh @ 10 μM (rabbit) of 70

% Inh @ 10 μM (rabbit) recorded for this compound, O=C(c1ccc(-c2cccc([N+](=O)[O-])c2)o1)N1CCc2c([nH]c3ccccc23)C1c1ccc2c(c1)OCO2 (stereo not shown) [Cmpd 54] , is 81

In plain terms, COc1ccc2cc(C(=O)N3CCc4c([nH]c5ccccc45)C3c3ccc4c(c3)OCO4)oc2c1 (stereo not shown) [Cmpd 15] has a documented % Inh @ 10 μM (rabbit) of 90

Input CN(C)CCn1c2c(c3ccccc31)CCN(C(=O)c1ccc(-c3cccc(C(F)(F)F)c3)o1)C2c1ccc2c(c1)OCO2 (stereo not shown) [Cmpd 35] . Output % Inh @ 10 μM (rabbit): 98

Lab book: % Inh @ 10 μM (rabbit) of CN(C)CCn1c2c(c3ccccc31)CCN(C(=O)c1ccc(-c3cc(C(F)(F)F)ccc3Cl)o1)C2c1ccc2c(c1)OCO2 (stereo not shown) [Cmpd 43] noted as 22

Reported % Inh @ 10 μM (rabbit) of O=C(c1cc(-c2ccc(Cl)cc2)oc1C(F)(F)F)N1CCc2c([nH]c3ccccc23)C1c1ccc2c(c1)OCO2 (racemic) [Cmpd 105] : 40

Short answer for COC(=O)c1ccc(C2c3[nH]c4ccccc4c3CCN2C(=O)c2c(-c3ccccc3)noc2C)cc1 (racemic) [Cmpd 116] : % Inh @ 10 μM (rabbit) was 32

% Inh @ 10 μM (rabbit) reported for this compound CCCc1c(C(=O)N2CCc3c([nH]c4ccccc34)C2c2ccc3c(c2)OCO3)cnn1-c1ccccc1 (racemic) [Cmpd 122] : 65

Lookup result for Cc1onc(-c2ccccc2)c1C(=O)N1CCc2c([nH]c3ccccc23)C1c1ccc([N+](=O)[O-])cc1 (racemic) [Cmpd 118] ; measured % Inh @ 10 μM (rabbit): 28

Short answer for Cc1cc(C)cc(C2c3[nH]c4ccccc4c3CCN2C(=O)c2cc(C(C)(C)C)nn2Cc2ccccc2)c1 (stereo not shown) [Cmpd 137] : % Inh @ 10 μM (rabbit) was −3

In plain terms, O=C(c1ccc(-c2cccc(C(F)(F)F)c2)o1)N1CCc2c(n(Cc3ccccn3)c3ccccc23)C1c1ccc2c(c1)OCO2 (stereo not shown) [Cmpd 26] has a documented % Inh @ 10 μM (rabbit) of 88

# % Inh @ 10 μM (rabbit) (compound: Cc1onc(-c2ccccc2)c1C(=O)N1CCc2c([nH]c3ccccc23)C1c1ccc(Cl)c(Cl)c1 (racemic) [Cmpd 109] ) is 31

Quick note, % Inh @ 10 μM (rabbit) for Cc1ccc(C2c3[nH]c4ccccc4c3CCN2C(=O)c2cnn(-c3ccccc3)c2C(F)(F)F)cc1C (racemic) [Cmpd 119] landed at 28

Noted for O=S(=O)(c1ccccc1)c1ccc(S(=O)(=O)N2CCc3c([nH]c4ccccc34)C2c2ccc3c(c2)OCO3)s1 (stereo not shown) [Cmpd 145] : its % Inh @ 10 μM (rabbit) reads 43

// % Inh @ 10 μM (rabbit) lookup, compound = Cc1ccc(C2c3[nH]c4ccccc4c3CCN2C(=O)c2cc(C(C)(C)C)nn2Cc2ccccc2)cc1C (stereo not shown) [Cmpd 135] , result: 8

Lookup result for COC(=O)c1ccc(C2c3[nH]c4ccccc4c3CCN2C(=O)c2cc(C(C)(C)C)nn2Cc2ccccc2)cc1 (stereo not shown) [Cmpd 140] ; measured % Inh @ 10 μM (rabbit): 8

response.value for N#Cc1ccc(C2c3[nH]c4ccccc4c3CCN2C(=O)c2cnn(-c3ccccc3)c2C(F)(F)F)cc1 (stereo not shown) [Cmpd 128] (field: % Inh @ 10 μM (rabbit)) = 11

Lab note: CN(C)CCn1c2c(c3ccccc31)CCN(C(=O)c1ccc(-c3ccccc3[N+](=O)[O-])o1)C2c1ccc2c(c1)OCO2 (stereo not shown) [Cmpd 41] gave % Inh @ 10 μM (rabbit) of 93

Note to self: % Inh @ 10 μM (rabbit) recorded for CN(C)CCNC(=O)C1Cc2c([nH]c3ccccc23)C(c2ccc3c(c2)OCO3)N1C(=O)c1ccc(-c2cccc(C(F)(F)F)c2)o1 (stereo not shown) [Cmpd 69] was 21

----------
Would you kindly list % Inh @ 10 μM (rabbit) for each of these compounds?
# MEASURED_TARGET: PDEV (Oryctolagus cuniculus, UniProt G1SX67)
# MEASUREMENT_NOTES: Cyclic nucleotide phosphodiesterase (PDE) assay, inhibition of PDEV isolated from rabbit tissue
# Format: biochemical
# TEST_CONDITIONS: 10 μM test compound; rabbit PDEV

Entry O=C(c1cnn(-c2ccc([N+](=O)[O-])cc2)c1C(F)(F)F)N1CCc2c([nH]c3ccccc23)C1c1ccc2c(c1)OCO2 (stereo not shown) [Cmpd 125] — recorded % Inh @ 10 μM (rabbit) = 54%

% Inh @ 10 μM (rabbit) reading for COc1ccc(C2c3[nH]c4ccccc4c3CCN2C(=O)c2cc(C(C)(C)C)nn2Cc2ccccc2)cc1OC (stereo not shown) [Cmpd 134] : 5%

Measured % Inh @ 10 μM (rabbit) of CN(C)CCn1c2c(c3ccccc31)CCN(c1nc3ccccc3s1)C2c1ccc2c(c1)OCO2 (stereo not shown) [Cmpd 2] : 43%

For this compound ( CC(C)(C)c1ccc(C(=O)N2CCc3c([nH]c4ccccc34)C2c2ccc3c(c2)OCO3)o1 (stereo not shown) [Cmpd 65] ), measured % Inh @ 10 μM (rabbit) is 66%

Given item Clc1ccc(-c2cnc(N3CCc4c([nH]c5ccccc45)C3c3ccc4c(c3)OCO4)nc2)cc1 (stereo not shown) [Cmpd 10] , the value recorded as its % Inh @ 10 μM (rabbit) is 79%

So for CC(C)(C)c1cc(C(=O)N2CCc3c([nH]c4ccccc34)C2c2ccc(C#N)cc2)n(Cc2ccccc2)n1 (stereo not shown) [Cmpd 139] , the logged % Inh @ 10 μM (rabbit) turned out to be −9%

The compound identified as O=C(c1ccc(-c2cccc(C(F)(F)F)c2)o1)N1CCc2c(n(C(=O)c3ccc(-c4cccc(C(F)(F)F)c4)o3)c3ccccc23)C1c1ccc2c(c1)OC(F)(F)O2 (stereo not shown) [Cmpd 20] registered its % Inh @ 10 μM (rabbit) at 4%

----------
For each record, write down the corresponding % Inh @ 10 μM (rabbit).
# MEASURED_TARGET: PDEV (Oryctolagus cuniculus)
# MEASUREMENT_NOTES: Cyclic nucleotide phosphodiesterase (PDE) assay, inhibition of PDEV isolated from rabbit tissue
# Format: biochemical
# TEST_CONDITIONS: 10 μM test compound; rabbit PDEV
Respond numerically; units are % and should not be typed.

Item: Cc1onc(-c2ccccc2)c1C(=O)N1CCc2c([nH]c3ccccc23)C1c1ccc2c(c1)OCO2 (racemic) | % Inh @ 10 μM (rabbit): 33

% Inh @ 10 μM (rabbit) in this record for COC(=O)c1ccc(C2c3[nH]c4ccccc4c3CCN2C(=O)c2cnn(-c3ccccc3)c2C(F)(F)F)cc1 (stereo not shown) : 46

% Inh @ 10 μM (rabbit) in this record for CN(C)CCn1c2c(c3ccccc31)CCN(C(=O)c1ccc(C(C)(C)C)o1)C2c1ccc2c(c1)OCO2 (stereo not shown) : 97

% Inh @ 10 μM (rabbit) for O=C(c1ccc(-c2cccc(C(F)(F)F)c2)o1)N1CCc2c(n(CCCCCl)c3ccccc23)C1c1ccc2c(c1)OCO2 (stereo not shown) is 56

----------
For each record, write down the corresponding % Inh @ 10 μM (rabbit).
# MEASURED_TARGET: PDEV (Oryctolagus cuniculus)
# MEASUREMENT_NOTES: Cyclic nucleotide phosphodiesterase (PDE) assay, inhibition of PDEV isolated from rabbit tissue
# Assay type: biochemical
# TEST_CONDITIONS: 10 μM test compound; rabbit PDEV
Number only, in %; omit the unit.

// O=C(c1cc2ccccc2s1)N1CCc2c([nH]c3ccccc23)C1c1ccc2c(c1)OCO2 (stereo not shown) : % Inh @ 10 μM (rabbit) value = 87

Item: CC(=O)Nc1ccc(-c2ccc(C(=O)N3CCc4c([nH]c5ccccc45)C3c3ccc4c(c3)OCO4)o2)cc1 (stereo not shown) | % Inh @ 10 μM (rabbit): 60

Form field % Inh @ 10 μM (rabbit), entry c1ccc2sc(N3CCc4c([nH]c5ccccc45)C3c3ccc4c(c3)OCO4)nc2c1 (stereo not shown) : 84

Form field % Inh @ 10 μM (rabbit), entry FC(F)(F)c1cccc(-c2ccc(CN3CCc4c([nH]c5ccccc45)C3c3ccc4c(c3)OCO4)o2)c1 (stereo not shown) : 76

Please fill in: % Inh @ 10 μM (rabbit) reported for O=C(c1ccc(-c2cccc([N+](=O)[O-])c2)o1)N1CCc2c([nH]c3ccccc23)C1c1ccc([N+](=O)[O-])cc1 (stereo not shown) = 26

Entry O=C(O)CCn1c2c(c3ccccc31)CCN(C(=O)c1ccc(-c3cccc(C(F)(F)F)c3)o1)C2c1ccc2c(c1)OCO2 (stereo not shown) ; % Inh @ 10 μM (rabbit) = 79

The compound listed as Cc1cc(C)cc(C2c3[nH]c4ccccc4c3CCN2C(=O)c2c(-c3ccccc3)noc2C)c1 (racemic) shows % Inh @ 10 μM (rabbit) equal to 29

Taken from patent US6864253B2.
